System: A. baumannii ATCC 17961
Format: cell-based, Acinetobacter baumannii
conditions used: ATCC 17961, 18 h
Bridge positions count the residues as written; N and C are the ends. Square brackets hold non-standard residues; d marks the D form. Peptide text beside a SMILES is read from it. * marks the point of attachment. Palmitoyl = CCCCCCCCCCCCCCCC(=O)*; dOrn = NCCC[C@@H](N)C(=O)O; Octanoyl = CCCCCCCC(=O)*; Orn = NCCC[C@H](N)C(=O)O
attribute measured: Antimicrobial activity (MIC) A. baumannii ATCC 17961

CCCCCCCCCCCCCCCC(=O)N[C@H](CO)C(=O)N[C@H](Cc1ccc(O)cc1)C(=O)N[C@H](Cc1c[nH]c2ccccc12)C(=O)N[C@H](CCCN)C(=O)N[C@@H](CCCN)C(=O)NCC(=O)N[C@H](CCCN)C(=O)N[C@@H](Cc1c[nH]c2ccccc12)C(=O)N[C@@H]1C(=O)N[C@@H]([C@@H](C)CC)C(=O)N[C@@H](CC(N)=O)C(=O)NCC(=O)NCC(=O)O[C@@H]1C [Compound 26] (Palmitoyl-[dS][dY][dW][dOrn][Orn]G[dOrn]WTINGG; ester 9-C); 4 µg/mL

Turning to the following molecule.
Sample CCCCCCCC(=O)N[C@H](CC(N)=O)C(=O)N[C@H](Cc1ccc(O)cc1)C(=O)N[C@H](Cc1c[nH]c2ccccc12)C(=O)N[C@H](CCCN)C(=O)N[C@@H](CCCN)C(=O)NCC(=O)N[C@H](CCCN)C(=O)N[C@@H](Cc1c[nH]c2ccccc12)C(=O)N[C@@H]1C(=O)N[C@@H]([C@@H](C)CC)C(=O)NCC(=O)N[C@@H](CO)C(=O)O[C@@H]1C [Compound 13] (Octanoyl-[dN][dY][dW][dOrn][Orn]G[dOrn]WTIGS; ester 9-C) — what was its Antimicrobial activity (MIC) A. baumannii ATCC 17961?
16 µg/mL
